Cited source for all entries: paper PMC7018034

Item-by-item account of CC50 VERO Cells
- Test system: VERO cells (ATCC CCL-81)
- Assay Explanation: Cytotoxicity, MTT
- Assay type: cell-based
- Run Conditions: 24 h exposure, 595 nm, mean ± S.D., triplicate in two independent experiments
Ends that are not written are not given here.
Property Name: CC50 VERO Cells (µM)

substance="EWGRRMMGRGPGRRMMRWWR-NH2 [Ib-M1]" property_name="CC50 VERO Cells" unit_string=µM relation_sign== reported_result=395.2
substance="EWGRRMMGWGRGRRMMRRWW-NH2 [Ib-M6]" property_name="CC50 VERO Cells" unit_string=µM relation_sign== reported_result=310.9
substance="EWGRRMMGWRPGRRMMRRWW-NH2 [Ib-M5]" property_name="CC50 VERO Cells" unit_string=µM relation_sign== reported_result=315.3
substance="EWGRRMMGRGPGRRMMRRWW-NH2 [Ib-M4]" property_name="CC50 VERO Cells" unit_string=µM relation_sign=> reported_result=400
substance="EWGRRMMGWRPGRRMMRWWR-NH2 [Ib-M2]" property_name="CC50 VERO Cells" unit_string=µM relation_sign== reported_result=197.5
